Hey, just so you know, these numbers are from paper PMC12040169.

viability at 28.5 h, 10 µM listing for selected molecules.
- test-details: in vitro
- condition-context: human, hela cells, % viability
Lab book: enter the figure in %, no units written.

N#Cc1ccccc1N1CCN(c2cncc(-c3ccc(F)cc3F)n2)CC1 = 102
O=C(c1cccc(Cl)c1)N1CCC(O)(c2cccnc2)CC1 = 93.2
Cc1ccc(S(=O)(=O)N2CC(=O)NC2=S)cc1 = 94.5
CN(Cc1ccc(-c2ccc(S(C)(=O)=O)cc2)nc1)C1CCN(C(=O)c2cc(Cl)ccc2Cl)CC1 [CBK165943T] = 84.5
CCOc1ccc(S(=O)(=O)Nc2ccc(O)c(C(=O)O)c2)cc1 = 93.5
O=C(O)C(Cc1ccccc1)Nc1ncnc2c1oc1ccccc12 (stereo not shown) = 104
C[C@H](NC(=O)Cn1cc(-c2ccc(CN3CCCC3)cc2)nn1)c1ccc(Br)cc1 = 86
CN(Cc1nnc(-c2ccc(C(C)(C)C)cc2)o1)C(=O)C1CCCO1 (stereo not shown) = 106

Could you tell me which viability at 28.5 h, 10 µM is on file for O=C(NCCc1ccccc1)[C@H]1C=CCN1C(=O)c1ccc(F)cc1 ?
89.4

Now this one: CC1CCN(C(=O)CCn2c(C(F)F)cc3cccnc32)CC1
85.6

Now the same for Cc1cc(-c2cn(C)nc2C2CCCCN2C(=O)C2CCC2)on1 (stereo not shown)
83.7

What do you have for Cc1nnsc1[S+]([O-])c1ccc(Br)cc1 (stereo not shown) ?
96.1

====

- test-details: in vitro
- condition-context: human, hela cells, % viability
metric-name: viability at 28.5 h, 10 µM (%)
Respond numerically; units are % and should not be typed.

Query: viability at 28.5 h, 10 µM; subject: COCCNS(=O)(=O)c1cccc2c1CN(C(=O)c1ccccc1)CC2 [CBK306539]
106

Another compound: COc1ccc(-c2cc(C(=O)NCCc3ccncc3)cnc2-c2ccc(F)cc2)cc1 [CBK037434]
91.5

Continue with COc1ccccc1NS(=O)(=O)c1ccc(N2CCN3CCCC3C2)c(N)c1 (stereo not shown) [CBK001266]
92.6

Try the compound CC1(C(=O)NC(c2ccncc2)c2ccc(Cl)cc2)CCCO1 (stereo not shown) [CBK282710]
89.5

O=C(CN1CCC(O)(Cc2ccccc2)CC1)N1CCCCCC1 [CBK283500] , same question.
96.9

Next entry: O=C(NCc1cccc(C(F)(F)F)c1)c1cnoc1-c1ccc(Br)cc1 [CBK153718]
96.9

====

- Test system: CTL2-GFP (C. trachomatis L2/434/Bu, GFP-expressing)
- Construct: L2/434/Bu, GFP-expressing
- test-details: microbe, parasite or virus in culture
- Design: Intracellular C. trachomatis growth in HeLa cells, bulk GFP fluorescence relative to DMSO
- condition-context: Chlamydia trachomatis, HeLa, 28.5 h; bulk GFP, mean of 2; read-out: % of control remaining
Rule: measured activity at 5 µM below 70% gets true; anything equal to or greater than 70% gets false.

activity at 5 µM under 70%? Item: COc1ccc([C@@]23CC[C@@H](NC(=O)c4ccc(-c5ccccc5)cc4)CC2N(C)CC3)cc1OC (stereo partly drawn) [CBK074973T]
false

Same question, FC(F)(F)c1ccc(N2CCNCC2)nc1OCc1ccc2c(c1)OCCO2 [CBK003994A] this time
true

And the next one, CC(Nc1cc(N2CCN(CCO)CC2)ccc1[N+](=O)[O-])c1ccc(Br)cc1 (stereo not drawn) [CBK041273] ?
false

What do you get for O=S(=O)(Nc1nccs1)c1ccc(Nc2ncnc3ccccc23)cc1 [CBK269487C] ?
false

CCc1nnc(NS(=O)(=O)c2ccc(N/C=C3\C(=O)N(c4ccc(C)cc4)N=C3C)cc2)s1 [CBK262395] ?
true

Clc1ccc2nc(-c3ccccn3)[nH]c2c1 [CBK000116] , same question.
true

How about this compound: CCOc1ccc2nc(NC(=N)N)nc(C)c2c1 [CBK010384C]
true

Would you mind doing Fc1cc(Br)c(CNCc2ncc[nH]2)c(N2CCCCC2)c1F [CBK304243] as well?
true

Same question for COc1cccc(CNc2ccc(N3CCOCC3)cc2)c1OCc1ccccc1F [CBK074406] please.
false

Now the same for C/C(=N\Nc1nnc2c(n1)[nH]c1ccccc12)c1ccccn1 [CBK262054]
true

Try the compound O=C(O)c1cn(C2CC2)c2cc(N3CCN(C(=O)Cc4ccsc4)CC3)c(F)cc2c1=O [CBK297142]
true

Now this one: Cc1cccc(Nc2nc(C)cc3n[nH]c(=O)n23)c1 [CBK288477]
true

Another: O=C(O)c1cn(C2CC2)c2cc(N3CCN(C(=O)C4CCCO4)CC3)c(F)cc2c1=O (stereo not drawn) [CBK297139]
true

Then O=C(NCCNCCNC(=O)C1(c2ccccc2)CCCC1)C1(c2ccccc2)CCCC1 [CBK017670] ?
true

Then what about the compound N=C(N)SCc1csc(-c2ccc(Br)cc2)n1 [CBK017064C] ?
false

====

viability at 28.5 h, 10 µM values, listed per item
- test-details: in vitro
- condition-context: human, hela cells, % viability
Your answer should be a plain number; it is taken to be in %.

Consider the following illustrative entries.
O=C(CSc1cccc2c(SCC(=O)c3ccccc3)cccc12)c1ccccc1 = 87.9
O=C1CC[C@@H](NCc2ccsc2)[C@H](c2cc(F)cc(F)c2)N1 = 102
CCNC(=O)N[C@H]1CC[C@]2(C)CCC([C@H](C)C(=O)N3CCCC3)[C@H](O)[C@H]2[C@@H]1C (some centres unmarked) = 116
O=S(=O)(Nc1cccc2cc[nH]c12)c1cc(Cl)ccc1Cl = 84.6
Cc1nc2ccc(C(=O)c3ccccc3O)cn2c(=O)c1CCC(=O)O = 94.5
O=C(O)COc1ccccc1/C=N/NC(=O)Cc1ccc(Br)c2ccccc12 = 85.6
COc1ccccc1NC(=O)C(c1ccccc1)N1CCOCC1 (centres unmarked) = 107
CCN1C(=O)CC2(C1=O)C(=O)N(CCCOc1ccccc1)c1ccc(OC)cc12 (centres unmarked) = 98
CN(C)CCn1c2c(c3ccccc31)CCCn1nnnc1-2 [CBK267713C] = 94.8
Cc1nc(CNCc2c(C)nn(C)c2N2CCOCC2)cs1 = 83.7

Which viability at 28.5 h, 10 µM is reported for this compound? Cc1cc(C)n(C(C)CNC(=O)c2cc(C3CC3)on2)n1 (centres unmarked)
103

O=C(C1=C(O)C(=O)N(CCCn2ccnc2)C1c1cccc([N+](=O)[O-])c1)c1cccs1 (centres unmarked) , same question.
95.9

Follow-up entry: CCN(CCO)C(=O)C(C)Oc1cc(C)ccc1Cl (centres unmarked)
86.6

Now give it for Clc1ccc(Cn2ncc3c(NCCN4CCOCC4)ncnc32)cc1 too.
105

Now consider CN(CC(=O)NCc1ccco1)C1CCCCCC1 and answer again.
97.3

For Nc1cccc(-c2cc(Nc3ccc(Cl)cc3)ncn2)c1 then?
91.7

Next record, please: O=C(c1cccnc1)C1CCN(C(=O)Cc2ccc(F)cc2)CC1
90.5

// next record CCCc1n[nH]c(C2CN(CCn3cccn3)CCO2)n1 (centres unmarked)
106

Try this compound too: CC(Oc1ccc(Cl)cc1Cl)C(=O)Nc1ccc(O)cc1 (centres unmarked)
94.8

Here is the next compound: Cc1c(C(=O)N2CCNC(=O)C2(C)C)nnn1Cc1ccc(F)cc1F
80.2

====

- test-details: in vitro
- condition-context: human, hela cells, % viability
metric-name: viability at 28.5 h, 10 µM (%)
// return numeric value only (unit: %, not printed)

Cc1nn(C)cc1-c1c(C#N)c(N)nc2c1CN(Cc1ccco1)CC2 [CBK306722] = 90.4

So what does the record say about viability at 28.5 h, 10 µM for CC(C)NC(=O)CN1C(=O)N2CCCN=C2c2ccc(Cl)cc21 [CBK284390] ?
96.5

Quick one: O=C1CC(c2cccs2)Sc2nc3ccccc3n21 (stereo not drawn) [CBK091627]
110

Ok, now CCCC/C=C/c1cncc(N2CCN(c3ccccc3C#N)CC2)n1 [CBK037369]
93.6

Okay, and O=C(CSc1ccc2nnc(-c3cccc(F)c3)n2n1)Nc1nccs1 [CBK287522] ?
85.8

Another compound: NNS(=O)(=O)c1ccc(Oc2ccc([N+](=O)[O-])cc2)cc1 [CBK261669]
95.9

Now consider O=C(c1ccco1)N1CCN(c2cc(-c3ccsc3)ncn2)CC1 [CBK037690] .
100

And what about the compound O=C(O)c1ccc(N2C(=O)C(=Cc3c4ccccc4cc4ccccc34)SC2=S)cc1 [CBK296101] ?
85.9

Can you check CC(=O)c1ccc(-c2cc(N3CCN(CCN4CCCC4)CC3)ncn2)s1 [CBK091169] next?
98.8
